System: influenza
Assay: anti-influenza potency
Type: cell-based
Property measured: EC50

# Compound, Property measured, Val
records = [
    ("O=C(O)C1C2CCC(CC2)C1n1cc(F)c2cnc(-c3c[nH]c4ncc(Cl)cc34)nc21 (stereo not shown)", "EC50", "0.1 to 3 nM"),
]
